Cited source: the RNAGym collection of RNA variant scans (doi:10.7554/elife.90254)

B1: LINE1-full (parent)
chain: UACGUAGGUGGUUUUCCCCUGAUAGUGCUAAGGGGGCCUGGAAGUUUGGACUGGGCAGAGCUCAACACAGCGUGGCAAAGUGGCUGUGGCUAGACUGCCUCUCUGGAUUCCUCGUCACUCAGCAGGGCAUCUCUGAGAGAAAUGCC

- Variants of: B1
- Assay Details: self-cleavage, relative activity (ratio to wild type); higher = more cleavage; in vitro, sequencing; the parent is a self-cleaving ribozyme
Parameter: self-cleavage
Give bare numbers.

Look over these answered cases.
Mutant Name | self-cleavage
C118A A138U | 1.47
G21A U46C | 1.31

I'm hoping you can list self-cleavage for every variant here, please.
1. U14G U29C
2. U73A A140U

1.6
1.88
